# System: MS2 coat protein
# assay-overview: apparent KD of MS2 coat protein; designed switch direction (-1 OFF switch, 1 ON switch): -1; higher = weaker reporter binding
# condition: input ligand: FMN 200 uM
Rule: apparent KD of MS2 coat protein of 50 nM or more gives criterion met; anything lower gives criterion not met.

Below are worked cases with known answers.
GCGCCAUCGUGAGAUGGCGUACCGACAUGAGGAUCACCCAUGUAGGAUAUCGAUUGCUUUGCAGUCGAGAAGGGCGUGAUAAGU [JL ENG3 3.74] (Eterna round: R96, puzzle: Exclusion NG 3)
criterion not met
UCCUGGCGAGGAUAUACAAAGAUUUUUUCGUUUUGUUUCGAACAUGAGGAUCACCCAUGUAGAAGGUGCUGCUG [JR_Ex2_Sub015] (Eterna round: R97, puzzle: Exclusion 2)
criterion not met
UAAUUUUUAGUAAGGAUAUCGGUCCCAAGGGACAACGAGAAGGUACAUGAGGAUCACCCAUGUGAUAAAAGAAU [Mod of Zala 5 - Jieux - Brourd's Mod of Exclusion 4] (Eterna round: R97, puzzle: Brourd's mod of Exclusion 4)
criterion met
AGACCGAUAGCAGGAUAUAGGACGACGAGAGCGCUAGAAGGGCUGACGACAUGAGGAUCACCCAUGUUUUCGUCUCAACAGGCA [Eternabot solution 22] (Eterna round: R96, puzzle: Exclusion NG 1)
criterion not met
UAUGGUUAAGUCAGGAUAUGCACGCAGAUUACAAUGCAGAAGGGACAUGAGGAUCACCCAUGUACACUCGUGUU [Ex4 #80] (Eterna round: R97, puzzle: Brourd's mod of Exclusion 4)
criterion not met

Has GCGCAAACGCCAAAAGGCGAAACAACAUGAGGAUCACCCAUGUAGGAUAUCGAUUGCUUUGCAGUCGAGAAGGGCAUAAUGCGC [JL ENG3 3.80 Mod 4] (Eterna round: R96, puzzle: Exclusion NG 3) a recorded apparent KD of MS2 coat protein greater than or equal to 50 nM?
criterion not met

// query: AGAGUGCUGCGAGGAUAUACAUGAGGAUCACCCAUGUAAUCGUCUGAGGCAAAGCCUCAGACGAAGUAGAAGGCGCAGUACUCA [Mat - Exclusion NG 2 - Mod of JL - D27] (Eterna round: R96, puzzle: Exclusion NG 2)
criterion not met

// query: UGUUGUCGCGUAGGAUAUGGCCAACAGGCCCUAGGAUAUGGGAAACCAGAAGGAGCGCCAACAGGCGAGAAGGACGGGACAACU [pwkr exNG2 2xF7 2xFMN.19] (Eterna round: R96, puzzle: Exclusion NG 2)
criterion met

// query: ACACCUCACGUCAGGAUAUCUAUCUCGAGUGAGGAAGAGAAGGGACAUGAGGAUCACCCAUGUAUAGAAAGAAU [Usissodi] (Eterna round: R97, puzzle: Brourd's mod of Exclusion 4)
criterion met

* * *

# Tested on: MS2 coat protein
# assay-overview: apparent KD of MS2 coat protein; higher = weaker reporter binding
# condition: Eterna round: R107; input ligand: tryptophan 2.4 mM
property: apparent KD of MS2 coat protein (µM)
Field format: number, assumed µM, no unit text.

UUAAUGAUAUAUCAUAUGAUAUAUCCAGAAGGAGCGUCAUAAAUGGCAGGUAGGUCGCUGAAGGCAACAUGAGGAUCACCCAUGU [#16 Same State - Arginine A]
0.0244
AGUAUACAUUCUGAUACCAGAGACAUGAGGAUCACCCAUGUCCGAUCGUCCUGCCUCAGACUCCCUUGGCAGCAGGAUAUGUGCU [Exclusion Theophylline B GF5]
0.0166

What measured apparent KD of MS2 coat protein goes with AAUAAUAAGGCGGCCGCCACUAAACAUGAGGAUCACCCAUGUCUCGAGCGCAUGCAUAAGGGAUGUAGGACCGGGCCAAUAAUAA [Exclusion - Tryptophan B (Freestyle 2)] ?
0.0236

* * *

apparent KD of MS2 coat protein: recorded values
# Tested on: MS2 coat protein
# assay-overview: apparent KD of MS2 coat protein; designed switch direction (-1 OFF switch, 1 ON switch): -1; higher = weaker reporter binding
# condition: input ligand: FMN 200 uM
The answer consists of two parts: a number and, after it, its unit.

Here are 3 sequences together with their reported answers.
UCUUUGUUUGUGAGGAUAUCGGUGGGAUGGGUUGUCGAGAAGGCACAUGAGGAUCACCCAUGUGAGGGACAGCA [JR_BMEx4_Sub028] (Eterna round: R97, puzzle: Brourd's mod of Exclusion 4)
16.6 nM
GAAUUAGUAGGAUAUACAUGAGGAUCACCCAUGUCUCAAACCAUGUACAGGAGAGGCUGUAGAAGGACUGAACA [Eternabot (Original) Solution 19] (Eterna round: R97, puzzle: Exclusion 3)
36 nM
CCUCCCGCCGUCAGGAUAUGCCGUACCGCUGCGCUACAGAAGGCACUUGAGGAUCACCCAAGUACCCGUGAGGC [salish99_bmod_ex4_r4_010] (Eterna round: R97, puzzle: Brourd's mod of Exclusion 4)
16.5 nM

We now examine a further sequence.
What measured apparent KD of MS2 coat protein goes with UAUUAGUAAGGAUAUGAGCCGUAGGACGAAAGUCCUACGGCUCAGAAGGUACAUGAGGAUCACCCAUGUUCAUU [Mod of Fisker 5 - Jieux - Exclusion 4] (Eterna round: R97, puzzle: Exclusion 4) ?
17.7 nM

* * *

# System: MS2 coat protein
# assay-overview: apparent KD of MS2 coat protein, switch ON state; designed switch direction (-1 OFF switch, 1 ON switch): 1; higher = weaker reporter binding
# condition: FMN input: 0 or 200 uM; Eterna round: R93 (includes R88 designs)
apparent KD of MS2 coat protein: recorded values
Field format: number, assumed nM, no unit text.

What measured apparent KD of MS2 coat protein goes with AGAAUAAAAAGACAGGAUAUCCAAAAGAAAACAUGAGGAUCACCCAUGUAAAAAAAAAUAAAAUGGGAGAAGGGUCAAAAUAAAG [Mat - Same State 2 - JL mod - D69] ?
18

* * *

# Test system: MS2 coat protein
# assay-overview: apparent KD of MS2 coat protein; designed switch direction (-1 OFF switch, 1 ON switch): 1; higher = weaker reporter binding
# condition: Eterna round: R95; input ligand: none
property: apparent KD of MS2 coat protein (nM)
Field format: number, assumed nM, no unit text.

Here are 2 sequences together with their reported answers.
ACCAAUCCAAUAAAACAAGCGUGCUCGUCACAUGAGGAUCACCCAUGUUCAAGCGCUGUUCCUAAUUCCUCAGCGCC [Ortiat] (puzzle: Sensor for hsa-mir-208a)
67.7
AACAAUCUAUCUGAGGAUAUCAUGAAAUAAACAUGAGGAUCACCCAUGUUCAGGAAAACUGCAUAUGAGAAGGCAGAUAGAUUGA [salish99_ss2_r3_035] (puzzle: Same State 2)
15.3

We now examine a further sequence.
What measured apparent KD of MS2 coat protein goes with GCAGAACAUGAGGAUCACCCAUGUCUCUAAUAUUGAGGAUAUGGACACGGUAUAUCCGAACCAGAAGGCGAACUGC [SS1 Teenbexe 17] (puzzle: Same State 1) ?
41.2

* * *

apparent KD of K4 kissing-loop reporter: recorded values
# System: K4 kissing-loop RNA reporter;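 also: bound reporter read as fluorescence of individual clusters on recovered sequencing chips by microscopy, with normalized cluster intensities fitted with a binding model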
# assay-overview: apparent KD of K4 kissing-loop reporter; higher = weaker reporter binding
# condition: Eterna round: R107; input ligand: theophylline 20 uM
Field format: number, assumed nM, no unit text.

What measured apparent KD of K4 kissing-loop reporter goes with AAUAAAAUCACGGCCGCCACUGAAUUAUUGGUAAGUAGUGAUGUUACUUUACAUAUCUAAUUUAACAGGACCGGGUGAAUAUUUA [#17 K4 Tryptophan B Exclusion] ?
96.6

// query: GAUAUAGUGAUGUUAUAUACUGAUAGACAACGAGGACCGGUACGGCCGCCACUCGAGAGGGUGAAAAUGAUGAUAAAAUAAUAAU [#01 K4 Tryptophan A Exclusion]
374

// query: AGACUACUGAUAGGAUAUAACAUCCUAGUCGUAUACCGAAAGGUAUACGAUUCCCUUCUAGUGAUGUUAGAAGGGUCGGUAGUCA [Omei KL FMN B Exc B v12]
60.9

// query: UUCUGCAUCUCGGCCGCCACUCACUAGUGAUGUUAGUAAGGAGCGACUAGAAAAGUCCAGUUAAUGAGGACCGGGAGAAGCUCUU [Exclusion Tryptophan B GF 1]
199

// query: UGAUAGGACAGAAGGAGCGGAAGUGAUGUUUCCAAAAGGAGAGGUCGACAAAGUCGACCCUUCCAGGUAGGUCGCUGUCCUAUCU [ArgBX 10 #Palindromic #SwitchBubble #StaticStem]
105

// query: UAAGAAUAACAUGCAGUGAUGUUGCAUGUACGAGGACCGGUACGGCCGCCACUCGAGUCCUCGAACAUGCACCGAGGAAUAACAA [(H,1)-(H,2)-(Trp1)-(Trp2)-(T)'-(H)'-(T)'']
161

// query: ACGCGCGCGAGUGAUGUUCGGAGCGGCUGGCAGGAUAUGUAGCAAUGCAGAAGGGUCGUGGCGCUCCCUCCUGAAGGAGGGAGCG [#2 Exclusion - FMN A Attempt #25 (HarryS)]
432

// query: GGCCGGCCGGGAAGGAGCGGGAGUGAUGUUUUCGCAAAGAAAGAUAUAAAAGAAACGAAAUCCCAGGUAGGUCGCCCGGCCGGUU
160

// query: AGUACGGACGCGGCCGCCACUCAGGAGAAGAAGGUAGUGAUGUUGCUUAUGGAGAGAUCAAUCAAGAGGACCGGGUGCCGUGCAA [#07 K4 Tryptophan B Same State]
534

// query: CCUAUCUCAUACGAUACCAGUGAAUUUAUAUUUAUUAGCAGUGAUGUUGCAUUCCAAGUACACCCUUGGCAGCGUAUGGGAUAGG [Ex Theophylline B K4 22]
172

// query: AGUGGAACUUGCAGGUAUCCACAACUGGAUACCAGCUCGGAAACGAGCCCUUGGCAGCCAGAUCUUGCAGUGAUGUUGCAAGUUC [Design10]
412
